- SYSTEM: Cytochrome P450 2C9 (Homo sapiens)
- Sequence (P11712 whole entry): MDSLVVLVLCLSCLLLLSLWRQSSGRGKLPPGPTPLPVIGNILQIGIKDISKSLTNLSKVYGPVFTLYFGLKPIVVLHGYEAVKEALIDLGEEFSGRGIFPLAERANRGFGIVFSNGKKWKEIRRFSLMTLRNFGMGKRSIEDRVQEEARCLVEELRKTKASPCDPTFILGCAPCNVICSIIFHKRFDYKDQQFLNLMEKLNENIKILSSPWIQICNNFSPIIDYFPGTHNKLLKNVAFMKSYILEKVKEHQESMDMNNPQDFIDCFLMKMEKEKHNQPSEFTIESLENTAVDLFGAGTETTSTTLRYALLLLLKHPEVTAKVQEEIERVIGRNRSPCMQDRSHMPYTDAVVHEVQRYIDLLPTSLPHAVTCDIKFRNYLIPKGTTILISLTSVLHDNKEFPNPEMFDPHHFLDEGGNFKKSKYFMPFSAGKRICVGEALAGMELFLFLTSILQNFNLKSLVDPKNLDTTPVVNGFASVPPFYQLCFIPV
ASSAY_READOUT: IC50

Ask: Give recorded IC50 with Cytochrome P450 2C9 (Homo sapiens) for the following molecule: "O=C(C1CCN(Cc2ccncc2)CC1)N1CCC(n2c(=O)[nH]c3ccccc32)CC1"
Result: > 20 µM

----------
pKi: −log10 of the molar value.
Histamine H3 receptor (Cavia porcellus, UniProt Q9JI35) data, read-out pKi
Sequence (Q9JI35 whole entry): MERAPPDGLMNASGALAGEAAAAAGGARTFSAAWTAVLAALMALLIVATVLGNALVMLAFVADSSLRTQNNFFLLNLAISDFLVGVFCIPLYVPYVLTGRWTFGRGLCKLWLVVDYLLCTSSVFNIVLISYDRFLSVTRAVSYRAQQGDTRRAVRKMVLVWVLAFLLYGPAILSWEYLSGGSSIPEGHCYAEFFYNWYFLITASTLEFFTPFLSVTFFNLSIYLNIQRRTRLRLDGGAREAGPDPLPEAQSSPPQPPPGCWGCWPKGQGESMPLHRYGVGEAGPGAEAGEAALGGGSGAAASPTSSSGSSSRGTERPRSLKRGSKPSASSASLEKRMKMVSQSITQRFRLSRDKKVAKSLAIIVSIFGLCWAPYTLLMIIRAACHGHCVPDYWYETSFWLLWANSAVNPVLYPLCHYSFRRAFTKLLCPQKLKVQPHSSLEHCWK
ASSAY_READOUT: pKi

The cases that follow already have their pKi on record.
Ask: What does the data say about its pKi? Entry: "O=C(c1ccccc1)C1CCN(C(=O)C2CCN(Cc3ccncc3)CC2)CC1"
Result: 7.77

Ask: So what's the measured pKi for this one? "O=C(C1CCN(CCc2ccncc2)CC1)N1CCC(n2c(=O)[nH]c3ccccc32)CC1"
Result: 6.27

Ask: Bench note: what pKi did "O=C(C1CCN(Cc2ccncc2)CC1)N1CCC(n2c(=O)n(Cc3ccccc3Cl)c3ccccc32)CC1" show?
Result: 8.35

Ask: What measured pKi goes with "O=C(C1CCN(Cc2ccncc2)CC1)N1CCC(n2c(=O)[nH]c3ccccc32)CC1" ?
Result: 8.70

Ask: Quick one: pKi for "O=c1[nH]c2ccccc2n1C1CCN(CC2CCN(Cc3ccncc3)CC2)CC1" ?
Result: 7.62

Ask: Which pKi value is on record for "O=C(C1CCN(Cc2ccncc2)CC1)N1CCC(n2c(=O)n(CCN3CCOCC3)c3ccccc32)CC1" ?
Result: 9.30

Ask: Suppose we examine the compound "O=C(C1CCN(Cc2ccncc2)CC1)N1CCC(n2c(=O)n(CCOc3ccccc3)c3ccccc32)CC1" ; what pKi value has been reported?
Result: 8.70

Ask: Report pKi for "O=C(C1CCN(Cc2ccncc2)CC1)N1CCC(Cc2ccccc2)CC1" please.
Result: 8.26

Ask: Give the measured pKi of "O=C(C1CCN(Cc2cccnc2)CC1)N1CCC(n2c(=O)[nH]c3ccccc32)CC1" .
Result: 6.76

Ask: // returns reported pKi for input "O=C(C1CCN(Cc2ccncc2)CC1)N1CCN(Cc2ccccc2)CC1"
Result: 7.55

(1) O=C(C1CCN(Cc2ccncc2)CC1)N1CCC(n2c(=O)n(CCO)c3ccccc32)CC1
(2) CCOCCn1c(=O)n(C2CCN(C(=O)C3CCN(Cc4ccncc4)CC3)CC2)c2ccccc21
(3) O=C(CC1CCN(Cc2ccncc2)CC1)N1CCC(n2c(=O)[nH]c3ccccc32)CC1
(4) O=C(C1CCN(Cc2ccncc2)CC1)N1CCC2(CC1)C(=O)NCN2c1ccccc1
(5) O=C(C1CCN(Cc2ccncc2)CC1)N1CCC(n2c(=O)n(Cc3ccccc3)c3ccccc32)CC1
Ask: List items by pKi in falling order. // ordering of labels required in reply
Result: 5, 1, 2, 4, 3

(I) O=C(N1CCC(n2c(=O)[nH]c3ccccc32)CC1)N1CCN(Cc2ccncc2)CC1
(II) O=C(C1CCN(Cc2ccncc2)CC1)N1CCN(c2ccccc2)CC1
Ask: Which value of pKi is greater, the one for I or the one for II ? // output: label of the selected item
Result: I
(I: 7.77, II: 7.40)

(I) O=C(C1CCN(Cc2ccsc2)CC1)N1CCC(n2c(=O)[nH]c3ccccc32)CC1
(II) CN1CCN(C(=O)C2CCN(Cc3ccncc3)CC2)CC1
Ask: Which item exceeds the other in pKi, I or II ? Lab note: record the label of whichever item you select.
Result: I
